biological target: OMPDC Thr321Asn (Homo sapiens, UniProt P11172, T321N); construct: OMPDC Thr321Asn was generated via site-directed mutagenesis; made in house; assay: Thermodynamic ITC ligand binding to OMPDC variant Thr321Asn; settings: ITC at 25 °C
Sequence (P11172 221-480 T321N limits assumed): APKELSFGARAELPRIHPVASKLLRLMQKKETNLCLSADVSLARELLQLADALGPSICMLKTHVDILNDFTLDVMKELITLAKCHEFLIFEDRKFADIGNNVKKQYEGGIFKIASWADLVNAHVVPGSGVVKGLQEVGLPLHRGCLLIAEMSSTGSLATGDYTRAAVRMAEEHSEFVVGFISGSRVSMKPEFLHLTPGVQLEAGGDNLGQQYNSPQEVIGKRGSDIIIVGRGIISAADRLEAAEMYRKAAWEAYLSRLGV
observed property: Kd (nM)
Lab book: enter the figure in nM, no units written.

Please fill in: Kd reported for Cc1cn([C@H]2C[C@H](O)[C@@H](COP(=O)(O)O)O2)c(=O)[nH]c1=O [dTMP, thymidine-5′-monophosphate] = 430

----------
target: human OMPDC (Homo sapiens, UniProt P11172); construct: Overexpression of human OMPDC in Escherichia coli; made in house; host or cells: Escherichia coli; test: Thermodynamic ITC ligand binding to human OMPDC wild-type; conditions: ITC, wild-type, first of two dissociation constants; read-out: Dissociation constant KD1
Sequence (P11172 221-480 limits assumed): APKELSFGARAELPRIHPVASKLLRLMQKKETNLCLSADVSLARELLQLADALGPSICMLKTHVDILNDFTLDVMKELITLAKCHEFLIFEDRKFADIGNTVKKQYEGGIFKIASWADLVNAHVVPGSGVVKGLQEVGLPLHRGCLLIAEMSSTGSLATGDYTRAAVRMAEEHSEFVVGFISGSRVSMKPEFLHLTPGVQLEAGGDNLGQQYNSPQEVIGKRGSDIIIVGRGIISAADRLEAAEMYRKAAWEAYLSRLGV
observed property: Kd (nM)
Number only, in nM; omit the unit.

The value of Kd measured for the compound O=c1[nH]c(=O)c2ncn([C@@H]3O[C@H](COP(=O)(O)O)[C@@H](O)[C@H]3O)c2[nH]1 [XMP, xanthosine-5′-monophosphate] turned out to be 213

----------
biological target: OMPDC Thr321Asn (Homo sapiens, UniProt P11172, T321N); construct: OMPDC Thr321Asn was generated via site-directed mutagenesis; made in house; assay: Thermodynamic ITC ligand binding to OMPDC variant Thr321Asn; details: ITC
observed property: Kd (nM)
Output spec: scalar in nM, unitless text.

The compound listed as Cc1cn([C@H]2C[C@H](O)[C@@H](COP(=O)(O)O)O2)c(=O)[nH]c1=O [dTMP, thymidine-5′-monophosphate] has a reported Kd of 431

----------
biological target: human OMPDC (Homo sapiens); construct: Overexpression of human OMPDC in Escherichia coli; made in house; host or cells: Escherichia coli; assay: Thermodynamic ITC ligand binding to human OMPDC wild-type; settings: ITC at 25 °C, wild-type, first of two dissociation constants (Sedphat analysis); read-out: K D1
Would you kindly list pKd for each of these molecules?
Quick note: pKd values are minus log10 of concentrations in mol/L.

Looking up Nc1ccn([C@@H]2O[C@H](COP(=O)(O)O)[C@@H](O)[C@H]2O)c(=O)n1 [CMP, cytidine-5′-monophosphate] , I found its pKd recorded as 5.33

Entry O=c1ccn([C@@H]2O[C@H](COP(=O)(O)O)[C@@H](O)[C@H]2O)c(=O)[nH]1 [UMP, uridine 5′-monophosphate] , pKd reported as 5.59

Value of pKd reported for the molecule O=c1[nH]c(=O)c2ncn([C@@H]3O[C@H](COP(=O)(O)O)[C@@H](O)[C@H]3O)c2[nH]1 [XMP, xanthosine-5′-monophosphate] is 6.68

----------
molecular target: human OMPDC (Homo sapiens, UniProt P11172); construct: Overexpression of human OMPDC in Escherichia coli; made in house; host or cells: Escherichia coli; assay: Thermodynamic ITC ligand binding to human OMPDC wild-type; details: ITC, wild-type, second of two dissociation constants; read-out: K D2
observed property: pKd
pKd field: float, defined as -log10 of concentration (mol/L).

The recorded pKd for O=c1[nH]c(=O)c2ncn([C@@H]3O[C@H](COP(=O)(O)O)[C@@H](O)[C@H]3O)c2[nH]1 [XMP, xanthosine-5′-monophosphate] is 6.74

Data origin: paper PMC12631982
